These measurements were taken from the RNAGym collection of RNA variant scans (doi:10.7554/elife.80360).

B1: CPEB3 Ribozyme (parent)
chain: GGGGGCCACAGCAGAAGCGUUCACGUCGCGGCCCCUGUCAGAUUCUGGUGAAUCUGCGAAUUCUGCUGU

- Variants of: B1
- ASSAY COMMENT: self-cleavage, relative activity (ratio to wild type); higher = more cleavage; co-transcriptional
Please mark true (1) if the recorded self-cleavage is equal to or greater than 0.5, and false (0) if it falls below.

VARIANT NAME | CATEGORY LABEL
U21A U67C | true (1)
U61A C63A | true (1)
G17U G58U | true (1)
G4A A15U | false (0)
G1A U38C | false (0)

[ask] For this variant, is measured self-cleavage 0.5 or higher? C6G C63A
[reply] false (0)
